Tested System: Dual specificity tyrosine-phosphorylation-regulated kinase 2 (Homo sapiens, UniProt Q92630)
Sequence (Q92630 whole entry): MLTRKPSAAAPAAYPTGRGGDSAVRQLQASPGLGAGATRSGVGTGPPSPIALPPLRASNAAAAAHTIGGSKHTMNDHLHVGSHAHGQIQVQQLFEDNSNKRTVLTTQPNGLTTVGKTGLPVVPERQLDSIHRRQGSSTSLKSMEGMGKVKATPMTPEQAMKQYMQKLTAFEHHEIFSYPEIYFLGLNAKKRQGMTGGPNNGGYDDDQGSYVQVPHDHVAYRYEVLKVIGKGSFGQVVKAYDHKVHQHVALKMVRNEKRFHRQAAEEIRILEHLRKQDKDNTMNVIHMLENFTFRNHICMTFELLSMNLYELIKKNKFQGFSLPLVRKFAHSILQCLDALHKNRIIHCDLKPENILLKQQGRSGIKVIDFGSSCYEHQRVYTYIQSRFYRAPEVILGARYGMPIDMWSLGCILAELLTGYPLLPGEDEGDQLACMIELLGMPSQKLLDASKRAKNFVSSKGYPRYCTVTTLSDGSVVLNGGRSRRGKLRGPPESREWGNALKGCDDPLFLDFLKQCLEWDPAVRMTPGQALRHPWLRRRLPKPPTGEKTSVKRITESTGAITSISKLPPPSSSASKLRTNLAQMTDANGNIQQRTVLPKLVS
pIC50: −log10 of the molar value.
Some compounds, each annotated with its measured pIC50.

Compound: Cn1ncc2cccc(NC3=N/C(=C\c4ccc5ncsc5c4)C(=O)N3)c21
Comparison Sign: =
pIC50: 5.25

Compound: CC(C)C[C@H](COC1CC1)NC1=N/C(=C\c2ccc3ncsc3c2)C(=O)N1
Comparison Sign: =
pIC50: 6.90

Compound: C[C@@H](NC1=N/C(=C\c2ccc3ncsc3c2)C(=O)N1)C1CCCCC1
Comparison Sign: =
pIC50: 5.44

Compound: CO[C@@H]1CCCC[C@H]1NC1=N/C(=C\c2ccc3ncsc3c2)C(=O)N1
Comparison Sign: =
pIC50: 6.47

Compound: CC(C)C[C@@H](CF)NC1=N/C(=C\c2ccc3ncsc3c2)C(=O)N1
Comparison Sign: =
pIC50: 6.58

Compound: O=C1NC(NC23CC4CC(CC(C4)C2)C3)=N/C1=C\c1ccc2c(c1)CCO2
Comparison Sign: =
pIC50: 5.79

Compound: COC(=O)[C@H](C)NC1=N/C(=C\c2ccc3ncsc3c2)C(=O)N1
Comparison Sign: =
pIC50: 6.38

Compound: O=C1NC(NCC(O)Cc2ccccc2)=N/C1=C\c1ccc2ncsc2c1 (racemic)
Comparison Sign: =
pIC50: 6.28

Compound: O=C1NC(NCc2ccccc2OC(F)(F)F)=N/C1=C\c1ccc2ncsc2c1
Comparison Sign: <
pIC50: 5.00

Compound: O=C1NC(NC23CC4CC(CC(C4)C2)C3)=N/C1=C\c1ccc2[nH]ncc2c1
Comparison Sign: =
pIC50: 6.59

* * *

Tested System: Dual specificity protein kinase CLK1 (Homo sapiens)
Sequence (P49759 whole entry): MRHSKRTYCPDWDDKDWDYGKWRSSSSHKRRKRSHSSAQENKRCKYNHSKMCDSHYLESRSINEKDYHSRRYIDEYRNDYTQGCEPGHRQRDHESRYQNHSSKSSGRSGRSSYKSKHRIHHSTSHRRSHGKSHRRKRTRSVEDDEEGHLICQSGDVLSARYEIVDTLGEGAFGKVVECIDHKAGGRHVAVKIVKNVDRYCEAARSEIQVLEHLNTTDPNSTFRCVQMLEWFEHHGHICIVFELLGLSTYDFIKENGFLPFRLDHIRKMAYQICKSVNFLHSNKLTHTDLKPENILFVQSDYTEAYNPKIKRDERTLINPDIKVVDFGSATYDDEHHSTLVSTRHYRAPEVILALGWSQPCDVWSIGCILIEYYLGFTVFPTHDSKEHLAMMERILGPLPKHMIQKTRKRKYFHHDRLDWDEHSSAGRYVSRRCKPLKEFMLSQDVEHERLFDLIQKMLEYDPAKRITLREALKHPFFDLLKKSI
Some compounds, each annotated with its measured IC50.
Observable: IC50 (nM)

Compound: C[C@@H]1CCCC[C@H]1NC1=N/C(=C\c2ccc3ncsc3c2)C(=O)N1 (racemic)
Comparison Sign: =
Readout Number: 17
//
Compound: CN1CCN(c2ccc(NC3=N/C(=C\c4ccc5c(c4)OCO5)C(=O)N3)cc2)CC1
Comparison Sign: =
Readout Number: 23
//
Compound: O=C1NC(NC2CCCCC2)=N/C1=C\c1ccc2ncsc2c1
Comparison Sign: =
Readout Number: 21
//
Compound: O=C1NC(NC2CCCCC2)=N/C1=C\c1ccc2c(c1)OCO2
Comparison Sign: =
Readout Number: 92
//
Compound: O=C1NC(NC2CCCCCC2)=N/C1=C\c1ccc2scnc2c1
Comparison Sign: >
Readout Number: 10000
//
Compound: O=C1NC(NC2CCCCCC2)=N/C1=C\c1ccc2nnsc2c1
Comparison Sign: =
Readout Number: 270
//
Compound: Cn1cc2cc(/C=C3\N=C(NC4CCCCC4)NC3=O)ccc2n1
Comparison Sign: =
Readout Number: 951
//
Compound: CN1CCN(c2cnc(NC3=N/C(=C\c4ccc5ncsc5c4)C(=O)N3)cn2)CC1
Comparison Sign: =
Readout Number: 55
//
Compound: CC(C)C[C@@H](CO)NC1=N/C(=C\c2ccc3ncsc3c2)C(=O)N1
Comparison Sign: =
Readout Number: 49
//
Compound: O=C1NC(NC[C@@H](O)c2ccccc2)=N/C1=C\c1ccc2ncsc2c1
Comparison Sign: =
Readout Number: 13

* * *

Let's go through some pIC50 measurements on Glycogen synthase kinase-3 beta (Homo sapiens, UniProt P49841) together.
Sequence (P49841 whole entry): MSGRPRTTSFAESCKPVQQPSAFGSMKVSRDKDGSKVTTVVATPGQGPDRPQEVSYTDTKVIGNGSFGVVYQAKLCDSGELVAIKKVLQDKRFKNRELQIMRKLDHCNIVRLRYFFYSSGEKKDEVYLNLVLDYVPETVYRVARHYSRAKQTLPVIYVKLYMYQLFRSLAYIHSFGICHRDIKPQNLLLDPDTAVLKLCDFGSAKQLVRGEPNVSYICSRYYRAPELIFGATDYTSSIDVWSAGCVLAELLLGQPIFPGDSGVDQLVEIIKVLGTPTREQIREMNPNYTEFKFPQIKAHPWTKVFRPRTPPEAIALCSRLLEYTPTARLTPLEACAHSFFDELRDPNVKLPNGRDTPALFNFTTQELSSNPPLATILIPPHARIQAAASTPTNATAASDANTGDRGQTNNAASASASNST
pIC50: −log10 of the molar value.
Observable: pIC50

Compound: O=C1NC(NC23CC4CC(CC(O)(C4)C2)C3)=N/C1=C\c1ccc2ncsc2c1
Observable: pIC50
Comparison Sign: =
Readout Number: 6.50

Compound: CN1CCN(c2ncc(NC3=N/C(=C\c4ccc5ncsc5c4)C(=O)N3)cn2)CC1
Observable: pIC50
Comparison Sign: =
Readout Number: 5.93

Compound: O=C1NC(NC2CCCCCC2)=N/C1=C\c1ccc2c(c1)CCO2
Observable: pIC50
Comparison Sign: <
Readout Number: 5.00

Compound: CN1CCN(c2cnc(NC3=N/C(=C\c4ccc5ncsc5c4)C(=O)N3)cn2)CC1
Observable: pIC50
Comparison Sign: =
Readout Number: 5.39

Compound: O=C1NC(NC2CCCCC2)=N/C1=C\c1ccc2nnsc2c1
Observable: pIC50
Comparison Sign: <
Readout Number: 5.00

Compound: CNCC(NC1=N/C(=C\c2ccc3ncsc3c2)C(=O)N1)c1ccccc1 (racemic)
Observable: pIC50
Comparison Sign: =
Readout Number: 6.64

Compound: O=C1NC(NC23CC4CC(CC2C4)C3)=N/C1=C\c1ccc2ncsc2c1
Observable: pIC50
Comparison Sign: =
Readout Number: 6.07

Compound: CC(C)C[C@H](COC1CC1)NC1=N/C(=C\c2ccc3ncsc3c2)C(=O)N1
Observable: pIC50
Comparison Sign: =
Readout Number: 5.44

Compound: CN(C)CC(NC1=N/C(=C\c2ccc3ncsc3c2)C(=O)N1)c1ccccc1 (racemic)
Observable: pIC50
Comparison Sign: =
Readout Number: 5.17

Compound: NC[C@H](NC1=N/C(=C\c2ccc3ncsc3c2)C(=O)N1)c1ccccc1
Observable: pIC50
Comparison Sign: =
Readout Number: 5.95

Compound: O=C1NC(NC2CC23CCCCC3)=N/C1=C\c1ccc2ncsc2c1 (stereo unspecified)
Observable: pIC50
Comparison Sign: =
Readout Number: 6.07

Compound: CN1CCC(NC2=N/C(=C\c3ccc4ncsc4c3)C(=O)N2)C1=O (racemic)
Observable: pIC50
Comparison Sign: <
Readout Number: 5.00

Compound: COC[C@@H](NC1=N/C(=C\c2ccc3ncsc3c2)C(=O)N1)c1ccccc1
Observable: pIC50
Comparison Sign: =
Readout Number: 5.25

Compound: CC(C)C[C@H](CO)NC1=N/C(=C\c2ccc3ncsc3c2)C(=O)N1
Observable: pIC50
Comparison Sign: =
Readout Number: 5.60

Compound: CC(=O)N1CCc2ccc(NC3=N/C(=C\c4ccc5ncsc5c4)C(=O)N3)cc21
Observable: pIC50
Comparison Sign: =
Readout Number: 5.74

Compound: O=C1NC(NC2C3CC4CC(C3)CC2C4)=N/C1=C\c1ccc2ncsc2c1 (stereo unspecified)
Observable: pIC50
Comparison Sign: =
Readout Number: 5.32

Compound: Cn1ncc2cccc(NC3=N/C(=C\c4ccc5ncsc5c4)C(=O)N3)c21
Observable: pIC50
Comparison Sign: =
Readout Number: 5.43

Compound: O=C1NC(Nc2ncccn2)=N/C1=C\c1ccc2ncsc2c1
Observable: pIC50
Comparison Sign: =
Readout Number: 5.11

Compound: O=C1NC(NC2CCCCC2)=N/C1=C\c1ccc2scnc2c1
Observable: pIC50
Comparison Sign: <
Readout Number: 5.00

Compound: CC1(C)CCC(NC2=N/C(=C\c3ccc4ncsc4c3)C(=O)N2)CO1 (racemic)
Observable: pIC50
Comparison Sign: =
Readout Number: 5.32

Compound: O=C1NC(NC[C@H](O)c2ccccc2)=N/C1=C\c1ccc2ncsc2c1
Observable: pIC50
Comparison Sign: <
Readout Number: 5.00

Compound: COC(=O)[C@H](C)NC1=N/C(=C\c2ccc3ncsc3c2)C(=O)N1
Observable: pIC50
Comparison Sign: =
Readout Number: 5.29

Compound: O=C1NC(NC2CCCCCC2)=N/C1=C\c1ccc2[nH]cnc2c1
Observable: pIC50
Comparison Sign: <
Readout Number: 5.00

Compound: O=C1NC(NC2CCC(F)(F)C2)=N/C1=C\c1ccc2ncsc2c1 (racemic)
Observable: pIC50
Comparison Sign: =
Readout Number: 5.33

Compound: O=C1NC(NCC(O)Cc2ccccc2)=N/C1=C\c1ccc2ncsc2c1 (racemic)
Observable: pIC50
Comparison Sign: =
Readout Number: 5.32

Compound: CO[C@H]1CC[C@H](NC2=N/C(=C\c3ccc4ncsc4c3)C(=O)N2)CC1
Observable: pIC50
Comparison Sign: =
Readout Number: 4.89

Compound: CC(C)(C)OC[C@H](NC1=N/C(=C\c2ccc3ncsc3c2)C(=O)N1)c1ccccc1
Observable: pIC50
Comparison Sign: =
Readout Number: 5.00

Compound: O=C1NC(NCC(O)C2CCCCC2)=N/C1=C\c1ccc2ncsc2c1 (racemic)
Observable: pIC50
Comparison Sign: =
Readout Number: 5.51

Compound: Cc1ccc(CNC2=N/C(=C\c3ccc4ncsc4c3)C(=O)N2)c(C)c1
Observable: pIC50
Comparison Sign: <
Readout Number: 5.00

Compound: NC[C@@H](NC1=N/C(=C\c2ccc3ncsc3c2)C(=O)N1)c1ccccc1
Observable: pIC50
Comparison Sign: =
Readout Number: 6.99

Compound: O=C1CC[C@H](NC2=N/C(=C\c3ccc4ncsc4c3)C(=O)N2)CN1
Observable: pIC50
Comparison Sign: =
Readout Number: 5.09

Compound: Cn1ccc(NC2=N/C(=C\c3ccc4ncsc4c3)C(=O)N2)n1
Observable: pIC50
Comparison Sign: =
Readout Number: 5.59

Compound: CN1CCCC(NC2=N/C(=C\c3ccc4ncsc4c3)C(=O)N2)C1 (racemic)
Observable: pIC50
Comparison Sign: <
Readout Number: 5.00

Compound: O=C1NC(NC2CCCCC2)=N/C1=C\c1ccc2[nH]ccc2c1
Observable: pIC50
Comparison Sign: <
Readout Number: 5.00

Compound: COC(=O)[C@@H](CC(C)C)NC1=N/C(=C\c2ccc3ncsc3c2)C(=O)N1
Observable: pIC50
Comparison Sign: =
Readout Number: 5.87

Compound: Cn1cc2cc(/C=C3\N=C(NC4CCCCCC4)NC3=O)ccc2n1
Observable: pIC50
Comparison Sign: <
Readout Number: 5.00

Compound: CC(C)C[C@@H](CO)NC1=N/C(=C\c2ccc3ncsc3c2)C(=O)N1
Observable: pIC50
Comparison Sign: =
Readout Number: 5.03

Compound: Cn1cnc2cc(/C=C3\N=C(NC4CCCCCC4)NC3=O)ccc21
Observable: pIC50
Comparison Sign: <
Readout Number: 5.00

Compound: Cn1cnc2cc(/C=C3\N=C(NC4CCCCC4)NC3=O)ccc21
Observable: pIC50
Comparison Sign: <
Readout Number: 5.00

Compound: CO[C@H]1CCCC[C@H]1NC1=N/C(=C\c2ccc3ncsc3c2)C(=O)N1 (racemic)
Observable: pIC50
Comparison Sign: =
Readout Number: 5.02

Compound: O=C1NC(NC2CCCCC2)=N/C1=C\c1ccc2[nH]cnc2c1
Observable: pIC50
Comparison Sign: <
Readout Number: 5.00
